Molecular target: T1, human IL-17A (human)
T1 chain: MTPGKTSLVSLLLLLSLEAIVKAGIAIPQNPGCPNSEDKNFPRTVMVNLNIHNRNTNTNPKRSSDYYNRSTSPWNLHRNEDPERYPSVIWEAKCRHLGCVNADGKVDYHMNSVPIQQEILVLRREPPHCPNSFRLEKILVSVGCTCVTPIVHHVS
Test: SPR, direct setup
ASSAY ENDPOINT: pKd
pKd here: minus log base 10 of the concentration, concentration in moles per litre.

Answered cases to consult:
| BINDER | pKd |
| --- | --- |
| A2 (27-07-G02-sc02) (antibody) DIQMTQSPSSLSASVGDRVTITCQASQTINYWLAWYQQKPGKPPKLLIYRASTLASGVPSRFSGSGSGTDFTLTISSLQPEDFATYYCQNYYYSTSRSYGFGGGTKLTVLGGGGGSGGGGSGGGGSGGGGSEVQLVESGGGLVKPEGSLRLSCAASGFSFSSDYWMCWVRQAPGKGLEWIACIYAGDVDDTDYASWARGRFTISRDNSKNTVYLQMNSLRAEDTAVYYCARVDGFDITYFDLWGQGTLVTVSS | 10.26 |
| PRO571 (27-31-C04-sc01) (antibody) DIQMTQSPSSLSASVGDRVTITCQASESIYRYLSWYQQKPGKAPKLLIYLASTLTSGVPSRFSGSGSGTDFTLTISSLQPEDFATYYCQSNFGTASTTYYNTFGGGTKLTVLGGGGGSGGGGSGGGGSGGGGSEVQLVESGGGLVQPGGSLRLSCAASGFSFSGFYYMCWVRQAPGKGLEWIGCIDTGDGTTYYASWAKGRFTISRDNSKNTVYLQMNSLRAEDTAVYYCARDAAYGGYAYPAHGMDLWGQGTLVTVSS | 10.40 |
| A1 (27-07-G02-sc01) (antibody) DIQMTQSPSSLSASVGDRVTITCQASQTINYWLAWYQQKPGKAPKLLIYRASTLASGVPSRFSGSGSGTDFTLTISSLQPEDFATYYCQNYYYSTSRSYGFGGGTKLTVLGGGGGSGGGGSGGGGSGGGGSEVQLVESGGGLVQPGGSLRLSCAASGFSFSSDYWMCWVRQAPGKGLEWIGCIYAGDVDDTDYASWARGRFTISRDNSKNTVYLQMNSLRAEDTAVYYCARVDGFDITYFDLWGQGTLVTVSS | 9.85 |

## Task Report pKd for PRO592 (27-31-C04-sc02) (antibody) DIQMTQSPSSLSASVGDRVTITCQASESIYRYLSWYQQKPGKAPKLLIYLASTLTSGVPSRFSGSGSGTDFTLTISSLQPEDFATYYCQSNFGTASTTYYNTFGGGTKLTVLGGGGGSGGGGSGGGGSGGGGSEVQLVESGGGLVQPGGSLTLSCAASGFSFSGFYYMCWVRQAPGKGLEWIGCIDTGDGTTYYASWAKGRFTISRDNSKNTVYLQMNSLRAEDTAVYYCARDAAYGGYAYPAHGMDLWGPGTLVTVSS please.
## Result 10.42
